Molecular target: GST-tagged human ROCK2 catalytic domain 1-553 (Homo sapiens, UniProt O75116)
Construct: GST-tagged human ROCK2 catalytic domain 1-553 from Carna Biosciences (Cat #01-110); purchased Carna Biosciences 01-110; host or cells: baculovirus expression system
Sequence (O75116 1-553): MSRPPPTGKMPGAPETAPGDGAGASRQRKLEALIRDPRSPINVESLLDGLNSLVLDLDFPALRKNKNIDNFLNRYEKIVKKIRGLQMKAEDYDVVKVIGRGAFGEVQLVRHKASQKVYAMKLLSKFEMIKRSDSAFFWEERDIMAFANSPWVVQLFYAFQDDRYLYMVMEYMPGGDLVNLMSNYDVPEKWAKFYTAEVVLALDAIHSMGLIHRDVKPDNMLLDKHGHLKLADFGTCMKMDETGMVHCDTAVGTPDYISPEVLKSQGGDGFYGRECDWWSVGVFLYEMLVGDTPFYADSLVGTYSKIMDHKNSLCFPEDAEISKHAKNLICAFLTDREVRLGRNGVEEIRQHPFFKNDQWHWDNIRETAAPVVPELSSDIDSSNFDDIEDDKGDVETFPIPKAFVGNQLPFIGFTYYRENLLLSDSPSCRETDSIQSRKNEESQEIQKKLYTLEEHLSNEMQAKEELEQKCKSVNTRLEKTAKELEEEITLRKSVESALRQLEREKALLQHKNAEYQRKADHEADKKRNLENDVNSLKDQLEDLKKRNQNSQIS
Test: Isolated Enzyme Assay, ROCK2 (LANCE Ultra ULight-CREBtide FRET)
Format: biochemical
Conditions: isolated enzyme; 30 μM highest concentration tested; read-out: Results from Isolated Enzyme Assay IC50 (μM) ROCK2
Recorded IC50, one value per entry.

stdin: Any idea what IC50 was measured for Cn1cc(CC(=O)Nc2cccc(-c3nsc(Nc4ccc5[nH]ncc5c4Cl)n3)c2)cn1 ?
stdout: < 1 µM

The origin of these recorded values is patent US10556898B2.
